tested on: Histone deacetylase 3 (Homo sapiens)
Sequence (O15379 whole entry): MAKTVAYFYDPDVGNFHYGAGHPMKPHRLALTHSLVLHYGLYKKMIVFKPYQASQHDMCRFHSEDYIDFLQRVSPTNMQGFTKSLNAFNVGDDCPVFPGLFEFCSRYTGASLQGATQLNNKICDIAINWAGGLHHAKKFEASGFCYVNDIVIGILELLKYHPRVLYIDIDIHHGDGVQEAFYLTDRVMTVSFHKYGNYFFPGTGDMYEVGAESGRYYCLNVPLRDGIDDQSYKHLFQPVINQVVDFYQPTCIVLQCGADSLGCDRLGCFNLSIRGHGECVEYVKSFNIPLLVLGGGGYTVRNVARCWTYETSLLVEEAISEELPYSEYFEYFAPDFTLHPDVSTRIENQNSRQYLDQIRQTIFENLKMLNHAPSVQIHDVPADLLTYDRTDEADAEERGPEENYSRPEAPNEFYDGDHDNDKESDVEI
procedure summary: Inhibition of human recombinant full length HDAC3 using (Ac)-Lys-Tyr-Lys(-acetyl)-AMC substrate after 30 mins
measurement kind: IC50 (µM)

Previously resolved entries follow.
>>> readout_value("O=C(CCCCCC(=O)Nc1cc2c(Nc3ccc(Cl)c(C(F)(F)F)c3)ncnc2s1)NO")
0.0483
>>> readout_value("O=C(CCCCCCC(=O)Nc1cc2c(Nc3ccc(N4CCCC4)cc3)ncnc2s1)NO")
0.0141
>>> readout_value("O=C(CCCCCCC(=O)Nc1cc2c(Nc3ccc(Cl)c(C(F)(F)F)c3)ncnc2s1)NO")
0.0235
>>> readout_value("Cc1ccc(Nc2ncnc3sc(NC(=O)CCCCCCC(=O)NO)cc23)cc1")
0.00292
>>> readout_value("O=C(CCCCC(=O)Nc1cc2c(Nc3ccc(F)c(Cl)c3)ncnc2s1)NO")
0.127
>>> readout_value("Cc1ccc(Nc2ncnc3sc(NC(=O)CCCCCC(=O)NO)cc23)cc1")
0.00933

a = O=C(CCCCCCC(=O)Nc1cc2c(Nc3ccc(Br)cc3F)ncnc2s1)NO
b = O=C(CCCCCCC(=O)Nc1cc2c(Nc3ccccc3)ncnc2s1)NO
Exercise: Short answer wanted: higher IC50, a or b ? Write the label of whichever entry you select.
Solution: a

1 = O=C(CCCCCCC(=O)Nc1cc2c(Nc3cccc(Cl)c3F)ncnc2s1)NO
2 = O=C(CCCCCCC(=O)Nc1cc2c(Nc3ccc(O[C@H]4CCOC4)c(Cl)c3)ncnc2s1)NO
Exercise: Short answer wanted: higher IC50, 1 or 2 ? Write the label of whichever entry you select.
Solution: 1

1 = Cc1ccc(Nc2ncnc3sc(NC(=O)CCCCCCC(=O)NO)cc23)cc1C
2 = O=C(CCCCCC(=O)Nc1cc2c(Nc3ccc(F)c(Cl)c3)ncnc2s1)NO
Exercise: Short answer wanted: higher IC50, 1 or 2 ? Write the label of whichever entry you select.
Solution: 2

1 = O=C(CCCCCCC(=O)Nc1cc2c(Nc3ccc(I)cc3F)ncnc2s1)NO
2 = O=C(CCCCCCC(=O)Nc1cc2c(Nc3ccc(N4CCCCC4)c(F)c3)ncnc2s1)NO
Exercise: Please choose the item with the lower IC50 value from this pair: 1 and 2 Write the label of whichever entry you select.
Solution: 2
